system: KB; assay: Antiproliferative activity against human KB cells assessed as cell growth inhibition after 72 hrs by sulforhodamine B assay; assay type: functional, cell-based
OBSERVABLE: IC50 (µM)
Kindly answer with a numeric value in µM, unit omitted.

C=C(C)[C@@H]1CC[C@]2(C(=O)O)CC[C@]3(C)[C@H](CC[C@@H]4[C@@]5(C)C[C@@H](F)[C@H](O)C(C)(C)[C@@H]5CC[C@]43C)[C@@H]12 :: 6.7
C=C(C)[C@@H]1CC[C@]2(C(=O)O)CC[C@]3(C)[C@H](CC[C@@H]4[C@@]5(C)CC[C@@](O)(C(F)(F)F)C(C)(C)[C@@H]5CC[C@]43C)[C@@H]12 :: 5.9

Item C=C(C)[C@@H]1CC[C@]2(C(=O)O)CC[C@]3(C)[C@H](CC[C@@H]4[C@@]5(C)CC[C@H](O)C(C)(C)[C@@H]5CC[C@]43C)[C@@H]12 : provide IC50
28.7

====

assay: Cytotoxicity against human MCF-10A cells assessed as cell viability at 30 uM after 72 hrs by MTT assay; type: cell-based; details: read-out: Activity
OBSERVABLE: viability at 72 h, 30 µM
Remember to quote the unit after the number.

Item C=C(C)[C@@H]1CC[C@]2(C(=O)O)CC[C@]3(C)[C@H](CC[C@@H]4[C@@]5(C)CC(F)[C@H](O)C(C)(C)[C@@H]5CC[C@]43C)[C@@H]12 (mixture of isomers) : provide viability at 72 h, 30 µM
80%

====

Listed next: entries and their corresponding IC50.
assay: Antiproliferative activity against human KB-VIN cells assessed as cell growth inhibition after 72 hrs by sulforhodamine B assay; assay type: functional, cell-based; conditions: KBVIN

C=C(C)[C@@H]1CC[C@]2(C(=O)O)CC[C@]3(C)[C@H](CC[C@@H]4[C@@]5(C)CC[C@H](O)C(C)(C)[C@@H]5CC[C@]43C)[C@@H]12 :: 30.7 µM
CC(=O)O[C@H]1C(=O)[C@@]2(C)[C@H]([C@H](OC(=O)c3ccccc3)[C@]3(O)C[C@H](OC(=O)[C@H](O)[C@@H](NC(=O)c4ccccc4)c4ccccc4)C(C)=C1C3(C)C)[C@]1(OC(C)=O)CO[C@@H]1C[C@@H]2O :: 2.9 µM
C=C(C)[C@@H]1CC[C@]2(C(=O)O)CC[C@]3(C)[C@H](CC[C@@H]4[C@@]5(C)C[C@H](F)[C@H](O)C(C)(C)[C@@H]5CC[C@]43C)[C@@H]12 :: 6 µM
C=C(C)[C@@H]1CC[C@]2(C(=O)OCc3ccc(Cl)cc3)CC[C@]3(C)[C@H](CC[C@@H]4[C@@]5(C)CCC(=O)C(C)(C)[C@@H]5CC[C@]43C)[C@@H]12 :: > 40 µM
C=C(C)[C@@H]1CC[C@]2(C(=O)OCc3ccc(Cl)cc3)CC[C@]3(C)[C@H](CC[C@@H]4[C@@]5(C)C[C@@H](F)C(=O)C(C)(C)[C@@H]5CC[C@]43C)[C@@H]12 :: > 40 µM
C=C(C)[C@@H]1CC[C@]2(C(=O)OC)CC[C@]3(C)[C@H](CC[C@@H]4[C@@]5(C)CC(F)[C@H](OC(=O)CC(C)(C)C(=O)O)C(C)(C)[C@@H]5CC[C@]43C)[C@@H]12 (stereo not given in full) :: > 10 µM
C=C(C)[C@@H]1CC[C@]2(C(=O)OC)CC[C@]3(C)[C@H](CC[C@@H]4[C@@]5(C)CC(F)[C@H](O)C(C)(C)[C@@H]5CC[C@]43C)[C@@H]12 (mixture of isomers) :: > 10 µM
C=C(C)[C@@H]1CC[C@]2(C(=O)O)CC[C@]3(C)[C@H](CC[C@@H]4[C@@]5(C)CC[C@@](O)(C(F)(F)F)C(C)(C)[C@@H]5CC[C@]43C)[C@@H]12 :: 6 µM
C=C(C)[C@@H]1CC[C@]2(C(=O)OCc3ccc(Cl)cc3)CC[C@]3(C)[C@H](CC[C@@H]4[C@@]5(C)CC[C@@](O)(C(F)(F)F)C(C)(C)[C@@H]5CC[C@]43C)[C@@H]12 :: > 40 µM

Okay, next one:
Item C=C(C)[C@@H]1CC[C@]2(C(=O)O)CC[C@]3(C)[C@H](CC[C@@H]4[C@@]5(C)CC(F)[C@H](O)C(C)(C)[C@@H]5CC[C@]43C)[C@@H]12 (mixture of isomers) : provide IC50
7 µM
